Attribution: patent US20150291598A1

# System: P. falciparum (NF54 or 3D7 strain)
# test_method_notes: Assay for P. falciparum proliferation in infected human blood cells (SYBR Green)
# Type: cell-based, Plasmodium falciparum
# condition_context: Plasmodium falciparum, Erythrocyte, 72 h, NF54 or 3D7 infected human erythrocytes, 72 hours; read-out: EC50 (nM), inhibitory efficacy in delaying P. falciparum proliferation in infected human blood cells
Classify: condition met when EC50 is strictly less than 600 nM; condition not met when EC50 is not.

{"smiles_data": "COc1ccc(-c2cnc3cnc(C(=O)N(C)c4ccc(C#N)cc4)cn23)c(F)c1", "qualitative_label": "condition met"}
{"smiles_data": "CN(C(=O)c1cn2c(-c3ccc(C(F)(F)F)cc3)cnc2cn1)c1cc(F)ccn1", "qualitative_label": "condition met"}
{"smiles_data": "Cc1cccc(CN(C)C(=O)c2cn3c(-c4ccc(C(F)(F)F)cc4)cnc3cn2)n1", "qualitative_label": "condition not met"}
{"smiles_data": "CN(C(=O)c1cn2c(-c3ccc(N4CCCC4)nc3)cnc2cn1)c1ccc(C#N)cc1", "qualitative_label": "condition not met"}
{"smiles_data": "CN(C(=O)c1cn2c(-c3ccc(NC(=O)CN)nc3)cnc2cn1)c1ccc(C#N)cc1", "qualitative_label": "condition met"}
{"smiles_data": "O=C(c1cn2c(-c3ccc(C(F)(F)F)cc3)cnc2cn1)N1CCCc2cc(Cl)ccc21", "qualitative_label": "condition not met"}
{"smiles_data": "COc1ccccc1N(C)C(=O)c1cn2c(-c3ccc(C(F)(F)F)cc3)cnc2cn1", "qualitative_label": "condition met"}
{"smiles_data": "CN(C(=O)c1cn2c(-c3ccc(C(F)(F)F)cc3)cnc2cn1)c1ccncc1", "qualitative_label": "condition not met"}
{"smiles_data": "CN(C(=O)c1cn2c(-c3ccc(C(F)(F)F)cc3)cnc2cn1)c1ccc(C2CCCC2)cn1", "qualitative_label": "condition not met"}
{"smiles_data": "CC(C)c1nc(-c2cnc3cnc(C(=O)N(C)c4ccc(C#N)cc4)cn23)cs1", "qualitative_label": "condition met"}
{"smiles_data": "CN(C(=O)c1cn2c(-c3ccc(C(F)(F)F)cc3)cnc2cn1)c1ccc(Cl)c(Cl)c1", "qualitative_label": "condition met"}
{"smiles_data": "Cc1cc(N(C)C(=O)c2cn3c(-c4ccc(C(F)(F)F)cc4)cnc3cn2)cnc1Cl", "qualitative_label": "condition met"}
{"smiles_data": "CN(C(=O)c1cn2c(-c3ccc(C(F)(F)F)cc3)cnc2cn1)c1ccccc1OC(F)(F)F", "qualitative_label": "condition not met"}
{"smiles_data": "COC(=O)Nc1ccc(-c2cnc3cnc(CN(C)c4ccc(C#N)cc4)cn23)cc1", "qualitative_label": "condition met"}
{"smiles_data": "CN(Cc1cn2c(-c3ccc(-c4ccn[nH]4)cc3)cnc2cn1)c1ccc(C#N)cc1", "qualitative_label": "condition met"}
{"smiles_data": "CN(C(=O)c1cn2c(-c3ccc4c(cnn4C)c3)cnc2cn1)c1ccc(F)c(F)c1", "qualitative_label": "condition met"}
{"smiles_data": "CN(C(=O)c1ccc(F)cc1)c1cn2c(-c3ccc(C(F)(F)F)cc3)cnc2cn1", "qualitative_label": "condition met"}
{"smiles_data": "CN(Cc1cccnc1)C(=O)c1cn2c(-c3ccc(C(F)(F)F)cc3)cnc2cn1", "qualitative_label": "condition not met"}
{"smiles_data": "CN(C(=O)c1cncnc1)c1cn2c(-c3ccc(C(F)(F)F)cc3)cnc2cn1", "qualitative_label": "condition not met"}
{"smiles_data": "FC(F)(F)c1ccc(-c2cnc3cnc(CN4CCOCC4)cn23)cc1", "qualitative_label": "condition not met"}
{"smiles_data": "CN(C(=O)c1cn2c(-c3cnc4c(c3)ncn4C)cnc2cn1)c1ccc(C#N)cc1", "qualitative_label": "condition not met"}
{"smiles_data": "CN(C(=O)c1cn2c(-c3ccc(Cl)cc3)cnc2cn1)c1ccc(F)cc1", "qualitative_label": "condition met"}
{"smiles_data": "CN1CCc2cc(-c3cnc4cnc(C(=O)N(C)c5ccc(C#N)cc5)cn34)ccc21", "qualitative_label": "condition not met"}
{"smiles_data": "Cc1cnc(N(C)C(=O)c2cn3c(-c4ccc(C(F)(F)F)cc4)cnc3cn2)cn1", "qualitative_label": "condition not met"}
{"smiles_data": "CN(C(=O)c1cn2c(-c3ccc(C(F)(F)F)cc3)cnc2cn1)c1ccc(C#N)nc1", "qualitative_label": "condition met"}
{"smiles_data": "CN(C(=O)c1cn2c(-c3ccc(C(F)(F)F)cc3)cnc2cn1)c1nc(-c2ccccc2)cs1", "qualitative_label": "condition not met"}
{"smiles_data": "CN(C(=O)c1cn2c(-c3ccc4c(cnn4C)c3)cnc2cn1)c1ccc(C#N)cn1", "qualitative_label": "condition not met"}
{"smiles_data": "CN(C(=O)c1cn2c(-c3ccc(C#N)nc3)cnc2cn1)c1ccc(C#N)cc1", "qualitative_label": "condition not met"}
{"smiles_data": "CN(C(=O)c1cn2c(-c3ccc(C(F)(F)F)cc3)cnc2cn1)c1ncc(Br)cn1", "qualitative_label": "condition not met"}
{"smiles_data": "CN(C(=O)c1cn2c(-c3ccc(Cl)cc3)cnc2cn1)c1ccc(Cl)nc1", "qualitative_label": "condition met"}
{"smiles_data": "COc1cc(Cl)ccc1N(C)C(=O)c1cn2c(-c3ccc(C(F)(F)F)cc3)cnc2cn1", "qualitative_label": "condition met"}
